Assay: 8581 concentration in serum after i.p. injection
Type: in vivo, mice
Conditions: B16;129F1, mouse, ip, 7 h after i.p. injection, 0.1 mg/kg, control mice
readout: concentration at 7 h

[in] Can you share its concentration at 7 h? I mean this compound: FC(F)c1ncn2c1Cn1ncnc1-c1cc(Br)ccc1-2 [Compound 8581]
[out] < 0.5 ng/mL

----------
Assay: 8581 concentration in serum after i.p. injection
Format: in vivo, mice
Settings: mouse, ip, 0.5 h after i.p. injection, 1 mg/kg, Nf1+/− mice
readout: concentration at 0.5 h
Could you give the number and then its unit, please?

[in] Can you share its concentration at 0.5 h? I mean this compound: FC(F)c1ncn2c1Cn1ncnc1-c1cc(Br)ccc1-2
[out] 192 ng/mL
